assayProtocol: chemical genetic growth profiling, strain panel (AID 1159580);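 further: tested at 20 µM; growth read once vehicle control cultures reached saturation at 30 °C; 1 = growth at the plate median or of vehicle wells; lower values mean less growth of the strain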
testContext: S. cerevisiae deletion strains, growth OD, locus YDL101C, strain DUN1
About 2,000 (36%) of roughly 5,500 compounds were called active. Another 18% or so got no clear call; they are omitted. No stated cut-off is given here; in the data, active means normalized growth mostly below about 0.91 (no sharp cut-off); inconclusive means no clear call, values can overlap the other calls; inactive means mostly above about 0.92. This is one part of the list.
A correct response names exactly one class from Yes for active, No for inactive

| compound | categoryLabel |
| --- | --- |
| Clc1ccc(C(c2ccc(Cl)cc2)C(Cl)(Cl)Cl)cc1 | No |
| Cc1oc(C(C)(C)C)cc1C(=O)Nc1ccc([N+](=O)[O-])cc1 | No |
| CNCCC(Oc1ccc(C(F)(F)F)cc1)c1ccccc1 (stereo unspecified) | No |
| COc1ccc(/C=C2\CC/C(=C\c3ccc(OC)c(OC)c3)C2=O)cc1OC | No |

Query: Outcome logged for COC(=O)CCCCCCCC(=O)Nc1ccc(Cl)cc1 in this assay:
Response: No

Query: Request: Cc1cc(C)cc(Sc2ccc3nnc(-c4ccccc4)n3n2)c1
Response: No

Query: Request: CN(C)C=Nc1ncccc1OCc1ccc(Cl)c(Cl)c1
Response: No

Query: Request: N/C(Cn1ccc(C(F)(F)F)n1)=N/OS(=O)(=O)c1cccc(Cl)c1Cl
Response: No

Query: Request: COc1cc(OC)c2c(c1)O[C@H](c1cc(OC)c(OC)c(OC)c1)[C@H](OC(=O)c1cc(OC)c(OC)c(OC)c1)C2
Response: No

* * *

Task for the reader: assign each of the following molecules its reported normalized growth.
assayProtocol: chemical genetic growth profiling, strain panel (AID 1159580)
testContext: S. cerevisiae deletion strains, growth OD, locus YHR030C, strain SLT2, active compounds read low
In all, about 5,500 compounds went through this assay and about 2,000 (36%) were called active. Not shown: some 18% with an inconclusive outcome. Some of the results follow.
Numbers only.

Quick request: normalized growth for each listed item, please.
1. CC[C@H]1OC(=O)[C@H](C)[C@@H](O[C@H]2C[C@@](C)(OC)[C@@H](O)[C@H](C)O2)[C@H](C)[C@@H](O[C@@H]2O[C@H](C)C[C@H](N(C)C)[C@H]2O)[C@](C)(OC)C[C@@H](C)C(=O)[C@H](C)[C@@H](O)[C@]1(C)O
2. S=C1NCN(CCN2CCCC2)CN1
3. CCC1(O)CC(OC2CC(N(C)C)C(OC3CC(O)C(OC4CCC(=O)C(C)O4)C(C)O3)C(C)O2)c2c(cc3c(c2O)C(=O)c2c(O)cccc2C3=O)C1C(=O)OC (stereo not given)
4. CCCN(CCC)C(=S)NC(=O)c1cccc([N+](=O)[O-])c1
5. COc1ccc(-c2coc3cc(O)ccc3c2=O)c(OC)c1O
6. COc1ccc(-c2coc3cc(O)ccc3c2=O)c(O)c1O
7. CCOC(=O)N=Nc1c(O)[nH]c2ccc(F)cc12

Response:
1: 0.986; 2: 1.04; 3: 1; 4: 0.94; 5: 0.99; 6: 1.02; 7: 1.06

Quick request: normalized growth for each listed item, please.
1. COc1ccc(-c2coc3cc(O)ccc3c2=O)c(OC)c1
2. COc1ccccc1-c1coc2cc(O)ccc2c1=O
3. CCCCCCCCCCCCN1CNC(=S)NC1

Response:
1.01
1.02
0.291

* * *

Task for the reader: assign each of the following molecules its reported normalized growth.
assayProtocol: chemical genetic growth profiling, strain panel (AID 1159580);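 further: tested at 20 µM; growth read once vehicle control cultures reached saturation at 30 °C; 1 = growth at the plate median or of vehicle wells; lower values mean less growth of the strain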
testContext: S. cerevisiae deletion strains, growth OD, locus YDL074C, strain BRE1, active compounds read low
Among all 5,500 compounds or so, about 2,000 (36%) were called active. Not shown: some 18% with an inconclusive outcome. The list shows a part of the results.
Numbers only.

Worked examples, 3 molecules total:
| molecule | readoutType | reported |
| --- | --- | --- |
| CCN(CC)Cc1ccc(Nc2ccnc3cc(Cl)ccc23)cc1O | normalized growth | 1 |
| O=C1c2ccc(O)cc2O[C@H](c2cc(O)c(O)c(O)c2)[C@H]1O | normalized growth | 0.939 |
| COc1ccc(-c2coc3cc(O)ccc3c2=O)cc1 | normalized growth | 0.839 |

Quick request: normalized growth for each listed item, please.
1. COC(=O)CC1C2(C)CC34OC5(C)OC6(C7/C(=C(/O)C(C)C)C(=O)OC(c8ccoc8)C7(C)C(OC(=O)C(C)C)C(OC)C6(O5)C13C)C(OC)C4(OC)C2OC(C)=O (centres undefined)
2. COc1ccc(-c2coc3cc(OC)ccc3c2=O)cc1
3. COc1ccc([C@H]2Oc3c(I)c(OC)cc(OC)c3C[C@@H]2O)cc1OC
4. Oc1cc(O)c2c(c1)O[C@H](c1ccc(O)c(O)c1)[C@@H](O)C2
5. c1ccc2c(c1)sc1ccccc12

Response:
1. 1.01
2. 0.839
3. 1.1
4. 1
5. 0.97

Quick request: normalized growth for each listed item, please.
1. COc1ccc(-c2coc3cc(O)ccc3c2=O)c(OC)c1O
2. COC(=O)C[C@H]1C2(C)CC34OC5(C)O[C@@]6([C@H](OC)C(OC(=O)C(C)C)[C@]7(C)C(/C(=C(/OC)C(C)C)C(=O)O[C@H]7c7ccoc7)[C@@]6(O5)[C@H](OC)[C@@]3(OC)C2OC(C)=O)[C@]14C (some centres undefined)
3. Oc1ccc2c(c1)O[C@H](c1ccc(O)c(O)c1)[C@@H](O)C2
4. N[C@@H](Cc1ccc(N(CCCl)CCCl)cc1)C(=O)O
5. Oc1cc(O)c2c(c1)O[C@H](c1ccc(O)c(O)c1)[C@H](O)C2

Response:
[1.03, 1.04, 1.08, 0.977, 1]

Quick request: normalized growth for each listed item, please.
1. COc1ccc(OC)c(C(O)CNC(=O)CN)c1 (centres undefined)
2. Cc1[nH]c2ccccc2c1CN(C)C
3. COC(=O)C[C@H]1C2(C)CC34OC5(C)O[C@@]6([C@H](OC(C)=O)C(OC(C)=O)[C@]7(C)C(/C(=C(/O)C(C)C)C(=O)O[C@H]7c7ccoc7)[C@@]6(O5)[C@H](OC(C)=O)[C@@]3(O)C2OC(=O)C(C)C)[C@]14C (some centres undefined)

Response:
0.962
1
0.986

* * *

Task for the reader: assign each of the following compounds its reported normalized growth.
assayProtocol: chemical genetic growth profiling, strain panel (AID 1159580);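 further: tested at 20 µM; growth read once vehicle control cultures reached saturation at 30 °C; 1 = growth at the plate median or of vehicle wells; lower values mean less growth of the strain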
testContext: S. cerevisiae deletion strains, growth OD, locus YLR027C, strain aat2, active compounds read low
About 2,000 (36%) of roughly 5,500 compounds were called active. Inconclusive results (about 18%) are left out. The list shows a part of the results.
Give bare numbers.

Worked examples, 2 compounds total:
| compound | normalized growth |
| --- | --- |
| CC[C@]1(O)CC2CN(CCc3c([nH]c4ccccc34)[C@@](C(=O)OC)(c3cc4c(cc3OC)N(C)[C@H]3[C@@](O)(C(=O)OC)[C@H](OC(C)=O)[C@]5(CC)C=CCN6CC[C@]43[C@@H]65)C2)C1 (stereo partly drawn) | 0.987 |
| NCCc1cnc[nH]1 | 1.01 |

Okay, now this compound:
Query: Consider the compound C=CC[C@]1(O)CCC2C3CCC4=CC(=O)CCC4=C3C=C[C@@]21C (stereo partly drawn) and give its measured normalized growth.
Response: 1

* * *

assayProtocol: chemical genetic growth profiling, strain panel (AID 1159580);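 further: tested at 20 µM; growth read once vehicle control cultures reached saturation at 30 °C; 1 = growth at the plate median or of vehicle wells; lower values mean less growth of the strain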
testContext: S. cerevisiae deletion strains, growth OD, locus YGL240W, strain doc1, active compounds read low
Out of some 5,500 compounds screened, about 2,000 (36%) were called active. Another 18% or so got no clear call; they are omitted. The list shows a part of the results.
Mark met for normalized growth under 1, not met if at or over.

Solved entries (count: 5):
| compound | categoryLabel |
| --- | --- |
| Oc1cc(O)c2c(c1)O[C@H](c1ccc(O)c(O)c1)[C@H](O)C2 | not met |
| CC(=O)S[C@@H]1CC2=CC(=O)CC[C@]2(C)[C@H]2CC[C@@]3(C)[C@@H](CC[C@@]34CCC(=O)O4)C12 (some centres undefined) | not met |
| C[C@]12CCC(=O)C=C1C=CC1C2CC[C@@]2(C)C1CC[C@@]2(O)CCC(=O)O (some centres undefined) | met |
| CC[C@@]1(O)C[C@H](O[C@H]2C[C@H](N(C)C)[C@H](O)[C@H](C)O2)c2c(cc3c(c2O)C(=O)c2c(O)ccc(O)c2C3=O)[C@H]1C(=O)OC | met |
| CO/N=C1/CN(c2nc3c(cc2F)c(=O)c(C(=O)O)cn3C2CC2)CC1CN (centres undefined) | met |

Query: Dear reviewer, please state whether CCCCCCCCCCCCCc1ccco1 has normalized growth strictly beneath 1.
Response: met

Query: Request: CN1CC(=O)N=C1N
Response: not met

Query: Request: Nc1ncn[nH]1
Response: not met

Query: Request: Oc1ccc2c(c1)O[C@H](c1ccc(O)c(O)c1)[C@@H](O)C2
Response: not met

Query: Request: CN(C)CCCC1(c2ccc(F)cc2)OCc2cc(C#N)ccc21 (centres undefined)
Response: met

Query: Request: O=C(O)CCCc1ccc(N(CCCl)CCCl)cc1
Response: met

Query: Request: O=C(c1ccc(OCCN2CCCCC2)cc1)c1c(-c2ccc(O)cc2)sc2cc(O)ccc12
Response: met

Query: Request: CN(C)CCOC(c1ccc(Cl)cc1)c1ccccn1 (centres undefined)
Response: not met

Query: Request: CN(C)CCN(Cc1ccccc1)c1ccccn1
Response: not met
